System: 786-0 renal
Assay: NCI tumour cell line growth inhibition, 48 h
Recorded measurements of TGI, one per entry
Report as a plain number; the unit µM is understood.

Illustrative cases are given below, each with its answer.
C1=CC(=P(c2ccccc2)(c2ccccc2)c2ccccc2)C=C1: 28.8
CCCCCCCC(=O)OCC/C=C/C1OC1C1OC(=O)/C=C\C=C\C(=O)N(C(C)=O)C(=O)/C=C(/C)CCC2OC2C1OC(=O)NC(C)=O (stereo not given): 11.1

Form: compound = COC(=O)c1sc(=O)sc1SCc1cccc(CSc2sc(=O)sc2C(=O)OC)c1 ; TGI = 31.4

----------
Tested on: IGROV1 ovarian
Test: NCI tumour cell line growth inhibition, 48 h
Label 0 if TGI falls below 50 µM; label 1 in every other case.

Look over these answered cases.
Cn1c(=O)oc2cc(C3CCC(=O)N3Cc3csc(-c4ccccc4)n3)ccc21 (stereo unspecified): 1
O=C1C(=O)c2c(nc3ccc(C(F)(F)F)cn23)-c2ccccc21: 0
C1=CC(=P(c2ccccc2)(c2ccccc2)c2ccccc2)C=C1: 0
O=[N+]([O-])c1ccc(-n2nc3ccc4nonc4c3n2)cc1: 1
O=C(O)CSC(CC(=O)c1ccc(Cl)cc1)c1ccc(Cl)cc1 (stereo unspecified): 1
CSC(SC)=C(C(=O)c1ccc(Cl)cc1)n1c(=O)sc2cc(Br)ccc21: 1
COc1cc(CCNC2=CC(=O)c3nc[nH]c3C2=O)ccc1O: 1
O=C1/C(=C/c2ccccc2)Oc2cc(O)ccc21: 1

Reported TGI reaches at least 50 µM for Nc1c(C(=O)c2ccc(Cl)c(Cl)c2)[nH]c(NCc2ccccc2)c1C(=S)Nc1ccccc1 ?
0

Reported TGI reaches at least 50 µM for Clc1ccccc1C(Nc1cnccn1)Nc1cnccn1 ?
1

Reported TGI reaches at least 50 µM for Cc1cc(=O)[nH]c(NNC(C#N)c2cccc([N+](=O)[O-])c2)n1 (stereo unspecified) ?
1

----------
Recorded measurements of TGI, one per entry
Test system: OVCAR-3 ovarian
Experiment: NCI tumour cell line growth inhibition, 48 h

Illustrative cases are given below, each with its answer.
[N-]=[N+]=CC(=O)CCC(N)C(=O)O (centres undefined): > 244 µM
Cc1cc2c(c(C(=O)O)c1C)-c1cccc(Cl)c1C2=O: > 100 µM

Form: compound = NC(N)=N/N=C\c1ccc(OCc2ccccc2)cc1 ; TGI = 5.75 µM

Form: compound = N#C/C(=C\c1ccc2[nH]ccc2c1)C(=O)NCCCCNC(=O)/C(C#N)=C/c1ccc2[nH]ccc2c1 ; TGI = > 31.6 µM

Form: compound = CSc1nc(Nc2cccc(NC(=O)CCl)c2)c(C#N)c(-c2cccc([N+](=O)[O-])c2)n1 ; TGI = 3.24 µM

----------
Tested on: HL-60(TB) leukemia
Test: NCI tumour cell line growth inhibition, 48 h
propertyMeasured: GI50

Illustrative cases are given below, each with its answer.
C[C@@]1(F)[C@H](O)[C@@H](CO)O[C@H]1n1ccc(=O)[nH]c1=O: > 100000 nM
COc1cc2c(/C=C3\C(=O)Nc4ccccc43)c[nH]c2cc1C: 494 nM

Form: molecule = CCN(CC)C(=S)SSC(C)C ; GI50 = 5630 nM

Form: molecule = CCCCNC(c1ccc(Cl)cc1)C(O)c1ccc(Cl)cc1 (centres undefined) ; GI50 = 1020 nM

----------
Tested on: TK-10 renal
Assay: NCI tumour cell line growth inhibition, 48 h
propertyMeasured: TGI

Illustrative cases are given below, each with its answer.
ClC1=NN=C(c2c[nH]c3ccccc23)CC1NCc1ccccc1 (centres undefined): > 100 µM
COc1cc2c(cc1OCCNC(=O)/C=C1\C[C@H]3C=Nc4cc(OCc5ccccc5)c(OC)cc4C(=O)N3C1)N=C[C@@H]1CCCN1C2=O: 36.7 µM

Kindly review the next molecule as well.
Form: molecule = N/N=C(/Cc1ccccc1)NNO ; TGI = > 100 µM

----------
System: MDA-MB-231 breast
Assay: NCI tumour cell line growth inhibition, 48 h; in the data active means GI50 below about 0.43 µM; inactive means the rest
Reply using exactly one outcome from active, inactive

COc1cc2c(cc1C)NC(=O)/C2=C/c1ccnc2ccccc12: inactive
CC1=NN(c2cccc(Cl)c2)C(=O)/C1=C\c1cn(CC(O)CN2CCCCC2)c2ccccc12 (configuration not stated): inactive
COc1ccc(-c2ccc(OC)c(OC)c2OC)cc1: inactive
COc1ccc2c(c1)C(=O)c1c-2c(OCCCN(C)C)nc2cc(Br)ccc12: inactive
O=C(Nc1sc2c(c1C(=O)O)CCCC2)c1ccco1: inactive

Could you kindly confirm the outcome this assay logged for COC1=CC(c2ccc[nH]2)=N/C1=C\c1[nH]c(C)c(C(=O)CCCCCCCCC(=O)O[C@H]2CC[C@H]3C4CCc5cc(O)ccc5C4CC[C@]23C)c1C (some centres not stated) ?
active

Could you kindly confirm the outcome this assay logged for COc1ccc(-n2c(=S)sc3c(Cl)nc(C)nc32)c(OC)c1 ?
inactive

Could you kindly confirm the outcome this assay logged for CC(C)C[C@@H](N)[C@@H](O)C(=O)N[C@H](C(=O)N[C@H](C(=O)N[C@@H](CC(=O)O)C(=O)O)C(C)C)C(C)C ?
inactive

Could you kindly confirm the outcome this assay logged for CC1(C)CC(C)(C)c2cc(NC(=S)Nc3ccc([N+](=O)[O-])cc3)ccc2S1 ?
inactive

Could you kindly confirm the outcome this assay logged for Cc1cccc(N2C(=O)/C(=C/C(Cl)=C/c3ccc([N+](=O)[O-])cc3)SC2=S)c1C ?
inactive

Could you kindly confirm the outcome this assay logged for O=C1C(=O)c2c(nc3ccc(C(F)(F)F)cn23)-c2ccccc21 ?
active

Could you kindly confirm the outcome this assay logged for O=C1c2cc3c(cc2-c2c1c1cc(F)c(F)cc1c(=O)n2CCCn1ccnc1)OCO3 ?
active

----------
Test system: SK-MEL-5 melanoma
Experiment: NCI tumour cell line growth inhibition, 48 h
Recorded measurements of TGI, one per entry
Report as a plain number; the unit µM is understood.

Illustrative cases are given below, each with its answer.
Cc1ccccc1NC(=O)O/N=C(\Cl)C(C)C: 25.9
CC(C)(C)C[C@H]1N[C@@H](C(=O)NC2CCC(O)CC2)[C@H](c2cccc(Cl)c2F)[C@@]12C(=O)Nc1cc(Cl)ccc12 (some centres undefined): 3.19
O=S(=O)(Nc1nc2ccccc2nc1N1CCCCCC1)c1ccccc1: 29.5
C1=CC(=P(c2ccccc2)(c2ccccc2)c2ccccc2)C=C1: 30.3
CC(=O)NC1C(OCc2ccccc2)OC(CO)C(O)C1OC(C)C(=O)N[C@@H](C)C(=O)N[C@H](CCC(=O)NCCNCCNc1c2ccccc2nc2cccc([N+](=O)[O-])c12)C(N)=O (some centres undefined): 0.0635

Form: compound = COc1cc2c(cc1C)NC(=O)/C2=C/c1ccnc2ccccc12 ; TGI = 31.3

Form: compound = C/C(=N\Nc1nc2ccccc2s1)c1ccncn1 ; TGI = 7.08

Form: compound = O=C1c2cc3c(cc2-c2c1c1cc(F)c(F)cc1c(=O)n2CCCn1ccnc1)OCO3 ; TGI = 0.0852

Form: compound = COC(=O)c1c2c(cc3c1CC1(Cc4cc5c(c(C=O)c4C1)CCC5)C3)CCC2 (centres undefined) ; TGI = 37.2

----------
Test system: SW-620 colon
Experiment: NCI tumour cell line growth inhibition, 48 h; in the data active means GI50 below about 0.43 µM; inactive means the rest
Reply using exactly one outcome from active, inactive

CCCCNC(c1ccc(Cl)cc1)C(O)c1ccc(Cl)cc1 (centres undefined): inactive

Could you kindly confirm the outcome this assay logged for CCOC(=O)Nc1ccc2nc(-c3cscn3)[nH]c2c1 ?
inactive

Could you kindly confirm the outcome this assay logged for COc1ccc2c(c1)C(=O)c1c-2c(OCCCN(C)C)nc2cc(Br)ccc12 ?
inactive

Could you kindly confirm the outcome this assay logged for COc1cc2c(/C=C3\C(=O)Nc4ccccc43)c[nH]c2cc1C ?
active

Could you kindly confirm the outcome this assay logged for CC1=NN(c2cccc(Cl)c2)C(=O)/C1=C\c1cn(CC(O)CN2CCCCC2)c2ccccc12 (centres undefined) ?
inactive

Could you kindly confirm the outcome this assay logged for CC(C)(C)C[C@H]1N[C@@H](C(=O)NC2CCC(O)CC2)[C@H](c2cccc(Cl)c2F)[C@@]12C(=O)Nc1cc(Cl)ccc12 (some centres undefined) ?
inactive

Could you kindly confirm the outcome this assay logged for CC(C)C[C@@H](N)[C@@H](O)C(=O)N[C@H](C(=O)N[C@H](C(=O)N[C@@H](CC(=O)O)C(=O)O)C(C)C)C(C)C ?
inactive

Could you kindly confirm the outcome this assay logged for C[C@@]1(F)[C@H](O)[C@@H](CO)O[C@H]1n1ccc(=O)[nH]c1=O ?
inactive

Could you kindly confirm the outcome this assay logged for COc1cc(C2CC(c3ccc(Nc4nc(NCCO)nc(NCCO)n4)cc3)=NN2c2cc(Cl)cc(Cl)c2)cc(OC)c1OC (centres undefined) ?
inactive

----------
Recorded measurements of TGI, one per entry
Tested on: SK-MEL-2 melanoma
Assay: NCI tumour cell line growth inhibition, 48 h

Illustrative cases are given below, each with its answer.
CCN(CC)C(=S)SC(C(=O)Nc1nnc(-c2ccc(Cl)cc2)o1)c1ccccc1 (stereo unspecified): > 100 µM
NCCO/C=C/C(N)C(=O)O (stereo unspecified): > 100 µM
COC(=O)[C@]1(c2cc3ccccc3n2S(=O)(=O)c2ccccc2)CC2CN(C(=O)OCc3ccccc3)C1C1OC(C)(C)OC21 (stereo partly specified): > 100 µM
CSC(SC)=C(C(=O)c1ccc(Cl)cc1)n1c(=O)sc2cc(Br)ccc21: > 100 µM
Cn1c(=O)oc2cc(C3CCC(=O)N3Cc3csc(-c4ccccc4)n3)ccc21 (stereo unspecified): > 100 µM

Form: compound = CN(C)C(=S)/N=c1\ss/c(=N\C(=S)N(C)C)n1-c1cccc(Cl)c1 ; TGI = > 100 µM

Form: compound = COc1ccccc1NC(=O)C(=O)C(C(=O)c1ccccc1F)C1OC(=O)c2ccccc21 (stereo unspecified) ; TGI = > 100 µM

Form: compound = Cn1c(I)c(C#C[Si](C)(C)C)c(=O)n(C(=O)c2ccccc2)c1=O ; TGI = 26 µM

Form: compound = COc1cc2c(cc1OCCNC(=O)/C=C1\C[C@H]3C=Nc4cc(OCc5ccccc5)c(OC)cc4C(=O)N3C1)N=C[C@@H]1CCCN1C2=O ; TGI = 3.56 µM

Form: compound = CCCCCC[C@H]([C@H](C)O)n1cnc2c(N)ncnc21 ; TGI = > 100 µM

Form: compound = CN1CCN(C2=NC(=O)/C(=C\c3ccc(N(C)C)cc3)S2)CC1 ; TGI = > 100 µM

Form: compound = O=C(O)c1c(CC(Cc2ccc3c(c2)CCC3)C(=O)O)ccc2c1CCC2 (stereo unspecified) ; TGI = > 100 µM

Form: compound = O=C(Nc1n[nH]c2cc(-c3cc(F)ccc3F)ccc12)C1CC1 ; TGI = > 25 µM

src = PubChem BioAssay (NCI)
